# PROTOCOL: NCI Yeast Anticancer Drug Screen. Data for the mlh1 rad18 strain (AID 175)
# EXPERIMENTAL_CONDITIONS: S. cerevisiae mlh1 rad18 strain growth inhibition; at 50.0 µM
The panel holds about 79,000 compounds, 15% with a hit somewhere; the sample as a whole holds those more often. Calls of active or inactive are those of the source. No stated cut-off is given here; in the data, active means growth inhibition above about 70%; inactive means the rest.
// one of active, inactive, no free text

Observe how each entry below is paired with its result.
C[N+](CCCl)(CCCl)Cc1cc([N+](=O)[O-])cc([N+](=O)[O-])c1 :: inactive
O=C([CH-]C(=O)c1ccccc1)c1ccccc1.O=C([CH-]C(=O)c1ccccc1)c1ccccc1.O=C([CH-]C(=O)c1ccccc1)c1ccccc1.[Nd+3].[OH3+] :: active
NC(=S)Nc1ccccc1 :: inactive
Cc1ccc(S(=O)(=O)/N=[Se](\C)c2ccccc2)cc1 (stereo not given) :: active
O.O.O=Cc1ccccc1O.O=Cc1ccccc1O.[Co] :: active
CC(C)(C[N+](=O)[O-])C[N+](=O)[O-] :: inactive
O=C(COc1ccc(Cl)c(Cl)c1)Nc1ccc[n+](Cc2ccc(S(=O)(=O)F)cc2Cl)c1 :: inactive
Oc1c(Cl)cc(Cl)cc1C1N(Cc2ccc(N(CCCl)CCCl)cc2)CCCN1Cc1ccc(N(CCCl)CCCl)cc1 :: inactive

Would you mind telling me which call this test gave N#C[S-].N#C[S-].[Au+3].[Au+3].[CH3-].[CH3-].[CH3-].[CH3-] ?
inactive

One more molecule: C1CC[N-]CC1.CC(=N\O)/C(C)=N/O.CC(=N\O)/C(C)=N/O.C[C-]=O.[Co+2]
inactive

---

# PROTOCOL: NCI Yeast Anticancer Drug Screen. Data for the rad50 strain (AID 155);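 further: 0% = growth of vehicle-only cultures of the same strain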
# EXPERIMENTAL_CONDITIONS: S. cerevisiae rad50 strain growth inhibition; at 5.0 µM (retest, dose inferred, filed as 0.5); hits give high values
This is part of a sample that, as a whole, favours compounds with a hit. Of some 79,000 tested, about 15% had one in any assay. Calls of active or inactive are those of the source. Rule as the data show it: active = growth inhibition above about 70%; inactive = the rest.
For each entry below, report its growth inhibition value.

Take a look at these entries with their results.
COC(C)(C)[CH]([Hg][Cl])n1ccccc1=O (stereo not drawn) :: 99% (active)
C[C@]12CC[C@H](O)C[C@@H]1CC[C@@H]1[C@@H]2CC[C@]2(C)C(=O)/C(=C/O)C[C@@H]12 :: -1% (inactive)

Given the compound CCOc1c(Br)cc(N=Cc2ccc(N(CCCl)CCCl)c(OC)c2)cc1Br , what is its reported growth inhibition?
6% (inactive)

---

# PROTOCOL: NCI Yeast Anticancer Drug Screen. Data for the mec2-1 strain (AID 157)
# EXPERIMENTAL_CONDITIONS: S. cerevisiae mec2-1 strain, at 50.0 µM, hits give high values
About 79,000 compounds went through this panel and 15% of them were active in at least one assay; those are over-represented in the sample as a whole.
Please assign a class to every record based on measured growth inhibition, with ranges group A: < -10%; group B: ≥ -10% and < 20%; group C: ≥ 20%

Use these answered entries as a reference point.
COc1ccc(C(OCC2OC(n3ccc(NC(=O)c4ccccc4)nc3=O)CC2OP2(=S)SCCS2)(c2ccccc2)c2ccc(OC)cc2)cc1 (stereo not drawn) :: group A
Nc1nc(N)n2c(N)nnc2n1 :: group A
[Ni+2].[S-]CC[S-] :: group B
COc1cc(C2c3cc4c(cc3OC(NCCO)C2C)OCO4)cc(OC)c1O (stereo not drawn) :: group A
CN1CC(NC(=O)N(CCCl)N=O)CC2c3cccc4c3c(cn4N=O)CC21 (stereo not drawn) :: group B
OCC[N+]12CN3CN(CN(C3)C1)C2 :: group B
Cc1[cH-]c(=O)n(-c2ccccc2)n1.[Au+].[Au].c1ccc([PH+](c2ccccc2)c2ccccc2)cc1.c1ccc([PH+](c2ccccc2)c2ccccc2)cc1 :: group C
Cc1c2n(c3ccccc13)CC1CON(C)C21 (stereo not drawn) :: group A
CC(=O)c1ccc([As](=O)(O)O)cc1 :: group A
CCCCCCCCCCCCCCCC[As]1c2ccccc2Nc2ccccc21 :: group B

Class for S=c1sc(-c2ccccc2)c[se]1 ?
group C

# repeat for O=C(N/N=C/c1cc(Br)cc(Br)c1[O-])c1ccccc1O.O=C(N/N=C/c1cc(Br)cc(Br)c1[O-])c1ccccc1O.[Co+2]
group C

---

# PROTOCOL: NCI Yeast Anticancer Drug Screen. Data for the mlh1 rad18 strain (AID 175)
# EXPERIMENTAL_CONDITIONS: S. cerevisiae mlh1 rad18 strain growth inhibition; at 5.0 µM (retest, dose inferred, filed as 0.5); hits give high values
Compounds without any hit were thinned out: in the full panel of roughly 79,000, 15% have a hit.
MEASUREMENT_TYPE: growth inhibition (%)
One number for each entry, in %.

CCOC(=O)C(c1ccsc1)P(=O)(OCC)OCC (centres undefined) :: 4
C[CH2][Sn]([Br])([CH2]C)[c]1ccccc1CN(C)C :: 22
O=C1C(Cl)=C(Cl)C(=O)c2ccccc21 :: 99
CC(=O)Nc1ccc([As](O[As](c2ccc(NC(C)=O)cc2)c2ccc([N+](=O)[O-])cc2)c2ccc([N+](=O)[O-])cc2)cc1 (centres undefined) :: 99
O=C(c1ccccc1)c1c(CC(O)c2cccnc2)n(C(=O)c2ccccc2)c2ccccc12 (centres undefined) :: 2
COc1ccc(NN=O)nc1 :: 20
CC1=CC2CC(C)=C(CC[C@]3(C)CC[C@H]([C@@H](C)C(=O)O)OO3)C(C)(C)C2CC1 (some centres undefined) :: 60
CC(Cc1ccc2c(c1)OCO2)NN (centres undefined) :: -20

We next turn to a different molecule, shown below.
Dear colleague, I am looking for the recorded growth inhibition of the following molecule: O=NNc1c[nH]c(=O)[nH]c1=O
3

---

# PROTOCOL: NCI Yeast Anticancer Drug Screen. Data for the rad50 strain (AID 155);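 further: 0% = growth of vehicle-only cultures of the same strain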
# EXPERIMENTAL_CONDITIONS: S. cerevisiae rad50 strain growth inhibition; at 5.0 µM (retest, dose inferred, filed as 0.5)
About 79,000 compounds went through this panel and 15% of them were active in at least one assay; those are over-represented in the sample as a whole. Active and inactive are the calls of the source. Rule as the data show it: active = growth inhibition above about 70%; inactive = the rest.
Write down one outcome, taken from active, inactive

O=C1OCC2CC3C4C=CC(C4)C3C12 (stereo unspecified) :: inactive
O=[N+]([O-])c1cc(Cl)c(Cl)cc1[N+](=O)[O-] :: active
[Pt].c1ccc([PH+](c2ccccc2)c2ccccc2)cc1.c1ccc([PH+](c2ccccc2)c2ccccc2)cc1.c1ccc([PH+](c2ccccc2)c2ccccc2)cc1.c1ccc([PH+](c2ccccc2)c2ccccc2)cc1 :: inactive
CC(C)=CCC/C(C)=C/CC/C(C)=C/Cc1c(O)c2ccccc2oc1=O :: inactive
O=C(CBr)OCCBr :: inactive

Turning now to a further compound:
What outcome does the record of this test show for CC1CCN(C(CC(=O)c2ccccc2)C(=O)c2ccccc2)CC1 (stereo unspecified) ?
inactive

---

For each of the compounds below, state its growth inhibition.
# PROTOCOL: NCI Yeast Anticancer Drug Screen. Data for the sgs1 mgt1 strain (AID 161);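 further: 0% = growth of cultures given vehicle only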
# EXPERIMENTAL_CONDITIONS: S. cerevisiae sgs1 mgt1 strain, at 50.0 µM (retest, dose inferred, filed as 5.0), hits give high values
About 79,000 compounds went through this panel and 15% of them were active in at least one assay; those are over-represented in the sample as a whole.
Numbers only, in %.

See these solved cases before continuing.
N#CCC[CH2][Sn]([Br])([Br])[c]1ccccc1 :: 49
CC(=O)[O-].CC(=O)[O-].O=C(N/N=C/c1cc(Cl)cc(Cl)c1[OH2+])c1ccncc1.[Zn+2] :: 30
O=C([CH-]C(=O)c1ccccc1)c1ccccc1.O=C([CH-]C(=O)c1ccccc1)c1ccccc1.O=C([CH-]C(=O)c1ccccc1)c1ccccc1.[Cl-].[Hf+4] :: 95

// below: growth inhibition requested for another compound
Look up growth inhibition: CCCCCCCC[As](C)(=O)O
-55

---

# PROTOCOL: NCI Yeast Anticancer Drug Screen. Data for the cln2 rad14 strain (AID 165);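 further: 0% = growth equal to vehicle treated cultures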
# EXPERIMENTAL_CONDITIONS: S. cerevisiae cln2 rad14 strain, at 50.0 µM, hits give high values
Compounds without any hit were thinned out: in the full panel of roughly 79,000, 15% have a hit.
Exercise: for every item that follows, state its recorded growth inhibition.
Give bare numbers, in %.

CC(=O)Oc1ccc(C=C(C#N)C#N)cc1 :: -7.1
O=P(Oc1ccccc1)(Oc1ccccc1)Oc1ccccc1Cl :: -6.1
Nc1ncnc(N)n1 :: -28.8
COP(=O)(OC)N1CCCCC1 :: 12.4

For every record below, what is its growth inhibition?
1. CN1C(=O)C2(C)SSC1(C)C(=O)N2C
2. CCOC(=O)C1Cc2ccc(OC)cc2C2=CC(=O)CCC21 (stereo not drawn)
3. CN(C(=[Se])[Se]C(=[Se])N(C)C1CCCCC1)C1CCCCC1
4. CC(=O)[C-](Cl)C(C)=O.CC(=O)[C-](Cl)C(C)=O.CC(=O)[C-](Cl)C(C)=O.[Ru+3]
5. OC1(CN2CCCCC2)N=C(c2ccccc2)c2ccsc2-n2cccc21 (stereo not drawn)

1: 87.7; 2: 1.65; 3: 18.4; 4: -1.7; 5: 22.2

List growth inhibition for every entry below, keeping the order given.
1. OC(c1ccccc1)(c1ccccc1)c1ccccn1
2. CNC(=O)Oc1cc(OC)ccc1C(=O)c1ccccc1

[2.7, -21.6]

Go through the items and report each one's growth inhibition.
1. COc1ccc(C(N)Cc2ccccc2)cc1 (stereo not drawn)
2. NC(=O)C1(Cl)CCCCC1
3. CO[As](OC)c1ccc(N=Nc2ccc(N(C)C)cc2)cc1
4. N#CC(C#N)=Cc1cccc(C=C(C#N)C#N)c1
5. C1OCC2[CH2][Hg][S][Hg][CH2]C1O2
6. O=P1(c2ccccc2)NC2CCCCC2N1 (stereo not drawn)
7. CCNCCC1(CC)C(=O)NC(=O)NC1=O

1. 9.85
2. -11.2
3. 98.6
4. 8.3
5. 92.6
6. -87
7. 2.2
